B1: F1*; the commonest letter at each place (parent)
chain: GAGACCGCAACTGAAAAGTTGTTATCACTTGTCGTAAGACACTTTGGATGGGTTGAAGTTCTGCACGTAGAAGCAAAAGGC

Variants of: B1
Test: fraction ligated after 30 min (ligated reads / total reads); higher = more ligase activity
Conditions: with F1*sub RNA substrate (template-directed ligation), 42 °C
Kindly return t if reported fraction ligated is no lower than 0.6; return f if it is lower.

Field: example entries. Status: answers known.
- mutation_label: "C40T T44A"
  category: "t"
- mutation_label: "C42A G50T"
  category: "t"
- mutation_label: "T25A A27T"
  category: "f"
- mutation_label: "G34A C40A"
  category: "t"
- mutation_label: "T25A G55T"
  category: "f"

fraction ligated >= 0.6 for G31A T49G ?
f

Would you say G34A C42G shows fraction ligated at minimum 0.6?
t

Reported fraction ligated at or above 0.6? C28A G47A
t

Say whether T30C C40A shows fraction ligated of 0.6 or more.
t

Test whether the variant T43C A57G records fraction ligated of 0.6 or higher.
t
